biological target: T1, anti-IBP4 antibody clone variant 7D6.G4; assay: ECLIA, peptide competes with IBP4 for the antibody
T1 construct: Mouse monoclonal; variant form; also called IBP4 (7D6.G4) V2; IBP4-7D6.G4
T1 sequence (VH, as listed by the source, chain 1 of 2): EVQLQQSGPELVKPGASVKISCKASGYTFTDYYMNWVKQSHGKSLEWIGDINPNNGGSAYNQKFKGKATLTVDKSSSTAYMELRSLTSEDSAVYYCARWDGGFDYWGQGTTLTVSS
T1 sequence (VL, as listed by the source, chain 2 of 2): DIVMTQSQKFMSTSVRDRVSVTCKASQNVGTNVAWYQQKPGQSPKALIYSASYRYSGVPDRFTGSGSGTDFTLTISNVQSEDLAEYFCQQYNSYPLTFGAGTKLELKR
Measured Parameter: binding result

* CHPALDGQRGKCWCV [G8] | binds
* LDGQRGKCWCVDRKT [G10] | binds
* PALDGQRGKCWCVDR [G9] | binds
